# Experiment Summary: Cytotoxicity against human A431 cells by MTT assay
# Format: cell-based, A-431
# Test Context: read-out: ED50 (the source's name)
# CC50 values compiled below

Item O=c1[nH]cc(F)c(=O)[nH]1 [FLUOROURACIL] : provide CC50
44 µM

Item CC(C)C/C=C/C[C@H]1CC[C@@H]2[C@]1(C)CCC1[C@]23C=C[C@]2(C[C@@H](O)CC[C@]12C)OO3 (some centres undefined) : provide CC50
> 23 µM

Item "CC(=O)O[C@@]1(C)C[C@@H](O)[C@]2(O)C=CO[C@@H](O[C@@H]3O[C@H](CO)[C@@H](O)[C@H](O)[C@H]3O)[C@@H]21" : provide CC50
310 µM

Item CC(=O)OC[C@@]12[C@@H](OC(C)=O)C[C@@H](C)[C@](C)(CCC3=CC(=O)OC3)[C@H]1CCC[C@]21CO1 [AJUGARIN I] : provide CC50
> 88 µM
